The origin of these recorded values is ChEMBL document CHEMBL1961873.

- Measured on: Protein kinase C theta type (Homo sapiens) (UniProt Q04759)
- Sequence (Q04759 whole entry, looked up): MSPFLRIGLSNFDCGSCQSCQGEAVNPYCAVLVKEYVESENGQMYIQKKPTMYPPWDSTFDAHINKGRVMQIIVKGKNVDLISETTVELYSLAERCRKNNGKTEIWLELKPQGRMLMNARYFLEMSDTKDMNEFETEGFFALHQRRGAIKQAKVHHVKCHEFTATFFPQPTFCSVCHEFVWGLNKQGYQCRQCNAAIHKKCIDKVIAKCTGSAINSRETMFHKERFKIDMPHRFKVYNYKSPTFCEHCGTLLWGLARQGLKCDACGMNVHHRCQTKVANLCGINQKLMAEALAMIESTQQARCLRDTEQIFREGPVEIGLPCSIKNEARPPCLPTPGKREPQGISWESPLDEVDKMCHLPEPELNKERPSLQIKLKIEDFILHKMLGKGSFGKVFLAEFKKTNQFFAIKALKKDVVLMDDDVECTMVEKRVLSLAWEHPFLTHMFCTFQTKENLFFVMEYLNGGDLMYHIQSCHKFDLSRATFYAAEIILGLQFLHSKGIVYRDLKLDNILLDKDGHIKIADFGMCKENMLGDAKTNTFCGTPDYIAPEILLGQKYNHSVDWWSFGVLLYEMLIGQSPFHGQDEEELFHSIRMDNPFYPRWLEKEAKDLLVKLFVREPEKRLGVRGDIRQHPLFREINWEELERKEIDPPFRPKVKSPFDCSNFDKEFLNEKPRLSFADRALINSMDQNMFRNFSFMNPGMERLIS
- Setup conditions: at 0.1 µM;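 further: reported figure is the mean percent inhibition of PKC-theta, from the GSK PKIS screen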
Measurement name: inhibition (%)
Number in %, nothing else.

>>> observed("COc1cc(C)c(NC(=O)CN(C)C)cc1Nc1nc(Nc2cccc(F)c2C(N)=O)c2cc[nH]c2n1")
0.13
>>> observed("CCn1c(-c2nonc2N)nc2cncc(C(=O)N3CCNCC3)c21")
3.06
>>> observed("COc1ccc(-c2coc3ncnc(N)c23)cc1")
1.7
>>> observed("CN(C)c1cc2c(Nc3ccc4nc(Cc5ccccc5)[nH]c4c3)ncnc2cn1")
2.25
>>> observed("Fc1cccc(COc2ccc(Nc3ncnc4cc(-c5ccc[nH]5)sc34)cc2Cl)c1")
0.25
>>> observed("COc1ccc(COc2ccc(Cc3cnc(N)nc3N)cc2OC)cc1")
0.95
>>> observed("CC1=C(C(=O)Nc2ccc3[nH]ncc3c2)C(c2ccc(Cl)c(Cl)c2)CC(=O)N1 (stereo not given)")
0.6
>>> observed("COc1cccc(-n2ncc3c(N/N=C/c4cccc(F)c4)ncnc32)c1")
0.55

Which measured inhibition value corresponds to CCn1c(-c2nonc2N)nc2cncc(C(=O)N3CC[C@H](N)C3)c21 ?
5.26

Thanks! And COc1cc2ncn(-c3cc(OCc4ccccc4C(F)(F)F)c(C(N)=O)s3)c2cc1OC ?
2.16
